# Test target: Voltage-gated potassium channel subunit beta-2 (Rattus norvegicus) (UniProt P62483)
# Sequence (P62483 whole entry, looked up): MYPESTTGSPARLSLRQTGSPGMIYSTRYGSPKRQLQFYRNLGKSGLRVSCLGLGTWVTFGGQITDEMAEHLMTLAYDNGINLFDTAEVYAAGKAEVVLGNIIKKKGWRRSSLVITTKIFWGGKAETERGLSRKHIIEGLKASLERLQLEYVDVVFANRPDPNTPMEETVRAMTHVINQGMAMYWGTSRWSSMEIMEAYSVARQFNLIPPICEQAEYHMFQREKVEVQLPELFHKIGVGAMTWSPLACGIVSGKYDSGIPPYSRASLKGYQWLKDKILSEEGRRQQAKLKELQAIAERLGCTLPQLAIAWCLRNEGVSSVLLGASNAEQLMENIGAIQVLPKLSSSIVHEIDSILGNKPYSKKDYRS
# Test details: inhibitors of rat Kvbeta2 reductase activity – biochemical, NADPH fluorescence, primary screen (AID 622);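 note: slope of raw intensity against log time taken from 70 to 1610 s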
# Run parameters: recombinant KvBeta, 4-cyanobenzaldehyde reduction, at 10 µM
The source made the active and inactive calls.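 Rule for the calls: active = fluorescence slope higher than the sample average by over 3 SD (cut at about -0.22 in these data, passing the limit was not always enough); inactive = the rest.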
Answer with one of the outcomes True for active, False for inactive

// return assay outcome for Fc1cccc2sc(Nc3nnc(-c4ccco4)o3)nc12
False

// return assay outcome for O=C1c2ccccc2-c2ccc(C(=O)N3CCOCC3)cc21
False

// return assay outcome for CN(C)S(=O)(=O)Nc1ccccc1C(N)=O
False

// return assay outcome for CCn1c(SCC(=O)Nc2ccc3c(c2)OCO3)nc2c(c1=O)SC(C)C2 (configuration not stated)
False

----------
# Test details: reduction of polyQ htt aggregates in cells – imaging, exon1htt(103Q)mCFP cells, high-content imaging, primary screen (AID 483);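 note: compound exposure lasted 3 days before fixation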
# Run parameters: exon1htt(103Q)mCFP cell line, aggregate imaging, at 2 µM; stronger effect = higher value
Reported inhibition of aggregation by item:
Enter your answer as a number in %; do not include the unit.

Example results:
Value of inhibition of aggregation reported for the compound Cn1nc(C(C)(C)C)cc1C(=O)NCc1ccc(N2CCCC2=O)cc1 is -12.4

Value of inhibition of aggregation reported for the compound Cc1nc2cc(CO)ccc2n1C is 1

Continuing:
Value of inhibition of aggregation reported for the compound COC(=O)CCCCC(=O)C1C(=O)CC(C)(C)C(C(=O)OC)C1=O (centres undefined) is -13.3

Value of inhibition of aggregation reported for the compound CSc1nnc(-c2ccccc2)n1C is -35.1

----------
# Test details: reduction of polyQ htt aggregates in cells – imaging, exon1htt(103Q)mCFP cells, high-content imaging, primary screen (AID 483);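 note: compound exposure lasted 3 days before fixation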;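 for nuclei count: percent of the per-plate median nuclei count of sample wells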
# Run parameters: exon1htt(103Q)mCFP cell line, aggregate imaging, at 2 µM; measured here: cell count, toxicity
Reported nuclei count by item:
Enter your answer as a number in %; do not include the unit.

Value of nuclei count reported for the molecule O=C1CCC(c2ccccc2)N1C(=O)c1cccnc1 (stereo unspecified) is 98

Value of nuclei count reported for the molecule O=C(CS(=O)(=O)Cc1ccccc1)N1CCc2ccccc2C1 is 97.8

Value of nuclei count reported for the molecule O=c1oc2ccccc2c(O)c1CN1CCCCC1 is 48.1

Value of nuclei count reported for the molecule C=CCn1cc(C(=O)NCCOC)c(=O)c2cc(S(=O)(=O)N(CC)CC)ccc21 is 81.2

Continuing:
Value of nuclei count reported for the molecule COc1ccc(-c2cc3nc4n(c(=O)c3s2)CCC4)cc1 is 88.6

Value of nuclei count reported for the molecule Cc1ccc2[nH]c3c(=O)n(CCCN4CCN(C)CC4)cnc3c2c1 is 105

Value of nuclei count reported for the molecule CN1C(=O)C(O)(CC(=O)c2ccc(F)cc2)c2cc(Br)ccc21 (stereo unspecified) is 69.5

Value of nuclei count reported for the molecule COc1ccc(CNc2oc(-c3cccc4ccccc34)nc2C#N)cc1 is 86.3

----------
# Test details: reduction of polyQ htt aggregates in cells – imaging, exon1htt(103Q)mCFP cells, high-content imaging, primary screen (AID 483);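 note: compound exposure lasted 3 days before fixation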;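 for nuclei count: percent of the per-plate median nuclei count of sample wells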
# Run parameters: exon1htt(103Q)mCFP cell line, aggregate imaging, at 2 µM; measured here: cell count, toxicity
Note to self: values exactly at 90% are condition met. So nuclei count at or above 90% is condition met, below is condition not met.

Quick check, nuclei count >= 90%? Cc1cc(/N=C/N(C)C)on1
condition met

Quick check, nuclei count >= 90%? O=C(CSc1ncccn1)c1ccccc1Br
condition met

Quick check, nuclei count >= 90%? CCn1c(=O)cc(OCC(=O)Nc2cc(C)ccn2)c2ccccc21
condition met

Quick check, nuclei count >= 90%? O=C(Nc1ccccc1C(=O)N1CCCCCC1)c1cccc(S(=O)(=O)N2CCOCC2)c1
condition not met

Quick check, nuclei count >= 90%? O=C(CN1C(=O)c2cccc3cccc1c23)N1CCN(c2ccccc2)CC1
condition met

Continuing:
Quick check, nuclei count >= 90%? COCC(=O)N(Cc1ccccc1)c1ccccn1
condition met

Quick check, nuclei count >= 90%? CN(C)c1ccc(C2C3=C(CCCC3=O)OC3=C2C(=O)CCC3)cc1
condition met

Quick check, nuclei count >= 90%? O=S(=O)(Cc1ccccc1)N1CCN(Cc2ccccc2)CC1
condition met

Quick check, nuclei count >= 90%? COc1ccc(OC)c(C2=NOC(C(=O)Nc3cc(C)nn3-c3ccccc3)C2)c1 (stereo unspecified)
condition not met

----------
# Test details: inhibitors of TNFa-induced NFkB p65 translocation, primary screen, imaging, HUVEC, MLSMR starter and 10KST1 sets (AID 438);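 note: compound added about 3h40 before a 20 min TNFalpha stimulation; signal is the nuclear over cytoplasmic p65 intensity ratio per well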
# Run parameters: HUVEC TNFa-induced p65 nuclear translocation; at 2 µM, stronger effect = higher value, 0% TNFa-plus-vehicle, 100% no-TNFa wells
Measured quantity: inhibition (%)
Enter your answer as a number in %; do not include the unit.

Value of inhibition reported for the compound COc1cc(OC)cc(-c2nc3cc(C)ccc3o2)c1 is 1.7

Continuing:
Value of inhibition reported for the compound COC(=O)c1ccc(C(=O)OC)c(NC(=O)Nc2ccc3c(c2)OCO3)c1 is -7.1

Value of inhibition reported for the compound CCCCCC(=O)N(CN1C(=O)CCC1=O)c1ccccc1 is 5.4

Value of inhibition reported for the compound Cc1ccc(CNC(=O)C2CC(=O)OC23CCCC3)c(C)c1 (centres undefined) is 17.5

----------
# Test details: endothelial E-selectin expression blockers – imaging, HUVEC, immunofluorescence, MLSMR starter and 10KST1 sets, primary screen (AID 487);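 note: signal is fraction of cell area covered by stained E-selectin grains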
# Run parameters: HUVEC TNFalpha-induced E-selectin immunofluorescence imaging, at 2 µM; stronger effect = higher value
Measured quantity: inhibition (%)
Enter your answer as a number in %; do not include the unit.

Example results:
Value of inhibition reported for the compound O=c1c2c3c(sc2n2cnnc2n1CCc1ccccc1)CCCC3 is -171

Value of inhibition reported for the compound CC(=O)Nc1nc2c(c3c1c(=O)oc1ccccc13)CC(C)CC2 (stereo not given) is 13.1

Value of inhibition reported for the compound O=C(CN1CCN(c2nc(-c3ccc(Cl)cc3)cs2)CC1)NCc1ccco1 is -53.5

Value of inhibition reported for the compound CCOC(=O)N1CCC(n2c(SCC(=O)NCc3ccco3)nc3ccsc3c2=O)CC1 is -97.7

Continuing:
Value of inhibition reported for the compound O=C(NC1CCCCC1)C(c1ccc(Cl)cc1)N(C(=O)c1cnccn1)c1ccc2c(c1)OCO2 (stereo not given) is -87

----------
# Test details: reduction of polyQ htt aggregates in cells – imaging, exon1htt(103Q)mCFP cells, high-content imaging, primary screen (AID 483);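 note: compound exposure lasted 3 days before fixation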
# Run parameters: exon1htt(103Q)mCFP cell line, aggregate imaging, at 2 µM; stronger effect = higher value
Note to self: values exactly at -10% are rule met. So inhibition of aggregation at or above -10% is rule met, below is rule not met.

Previously resolved entries follow.
Quick check, inhibition of aggregation >= -10%? Nc1c(N2CCCCC2)c(=O)[nH]c(=O)n1-c1ccccc1
rule met

Quick check, inhibition of aggregation >= -10%? CN1CCN(S(=O)(=O)c2ccc(NC(=O)Nc3cccc(Cl)c3)cc2)CC1
rule met

Quick check, inhibition of aggregation >= -10%? O=C(CCN1C(=O)c2ccccc2C1=O)Nc1ccc(F)cc1
rule met

Quick check, inhibition of aggregation >= -10%? CCOC(=O)C1CCN(CC(=O)Nc2c(C(=O)OC)[nH]c3ccc(Cl)cc23)CC1
rule not met

Quick check, inhibition of aggregation >= -10%? CC1(C)NC(=O)N(CCCOc2ccc(Br)cc2Cl)C1=O
rule met

Continuing:
Quick check, inhibition of aggregation >= -10%? CCNc1ccc2c(Cl)cc(=O)oc2c1
rule met

Quick check, inhibition of aggregation >= -10%? CC(=O)N1CCc2c(sc(NC(=O)c3ccc(S(=O)(=O)N(C)C)cc3)c2C#N)C1
rule met

Quick check, inhibition of aggregation >= -10%? CC(C)c1nc(N2CCN(C(=O)c3ccco3)CC2)c2c3c(sc2n1)CCCC3
rule not met

Quick check, inhibition of aggregation >= -10%? CCn1c(=O)cc(OCC(=O)Nc2cc(C)ccn2)c2ccccc21
rule met

----------
# Test details: endothelial E-selectin expression blockers – imaging, HUVEC, immunofluorescence, MLSMR starter and 10KST1 sets, primary screen (AID 487);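 note: signal is fraction of cell area covered by stained E-selectin grains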
# Run parameters: HUVEC TNFalpha-induced E-selectin immunofluorescence imaging, at 2 µM; stronger effect = higher value
Note to self: values exactly at -40% are true. So inhibition at or above -40% is true, below is false.

Quick check, inhibition >= -40%? Cc1cnc(NC(=O)CSc2nc3ccccc3c(=O)[nH]2)s1
true

Quick check, inhibition >= -40%? COc1ccc(-c2nnn(CCc3nn[nH]n3)n2)cc1OC
true

Quick check, inhibition >= -40%? Cc1ccc(C(=O)OCC(=O)Nc2ccc3c(c2)OCO3)o1
true

Quick check, inhibition >= -40%? CCOC(=O)Cc1csc(NC(=O)CSc2nnc(C(C)C)n2CC)n1
true

Quick check, inhibition >= -40%? CCn1nnnc1SCC(=O)N1CCOCC1
true

Quick check, inhibition >= -40%? CCCN1Cc2cccc(C(=O)NC3CCCC3)c2C1=O
false

Continuing:
Quick check, inhibition >= -40%? Cc1cccc(NC(=O)c2oc3c(c2C)C(=O)CC(C)(C)C3)n1
false

Quick check, inhibition >= -40%? CC(C)(C)OC(=O)NC(CCNC=C1C(=O)OC(C)(C)OC1=O)C(=O)O (centres undefined)
false

Quick check, inhibition >= -40%? COc1ccc(NC(=O)Cn2nnc(-c3ccccc3F)n2)cc1Cl
false

Quick check, inhibition >= -40%? Cc1ccc(NC(=O)CS(=O)CC(=O)NCC2CCCO2)cc1 (centres undefined)
true
